Subject Of Test: human CD33 C163A (human, UniProt P20138 18-364)
Sequence (P20138 18-364 C163A limits assumed): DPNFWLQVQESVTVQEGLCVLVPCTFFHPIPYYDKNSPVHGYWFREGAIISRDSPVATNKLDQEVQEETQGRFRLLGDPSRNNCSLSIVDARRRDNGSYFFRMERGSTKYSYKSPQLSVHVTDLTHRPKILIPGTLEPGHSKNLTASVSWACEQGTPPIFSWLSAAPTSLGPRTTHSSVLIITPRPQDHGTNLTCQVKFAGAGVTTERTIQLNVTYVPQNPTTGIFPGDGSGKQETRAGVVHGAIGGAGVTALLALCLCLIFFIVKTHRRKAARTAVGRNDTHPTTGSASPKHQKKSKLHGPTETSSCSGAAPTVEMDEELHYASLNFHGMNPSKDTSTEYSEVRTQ
Experimental Details: flow cytometry on HEK293-T, alanine scan
Quick reference: Mean % WT Binding of the listed items.
# unit: % WT binding | format: bare number

# Binder, Endpoint Label, Reported
rows = [
    ("Refmab #2 (antibody, V domains shown, The alanine scan used IgG or Fab) VH: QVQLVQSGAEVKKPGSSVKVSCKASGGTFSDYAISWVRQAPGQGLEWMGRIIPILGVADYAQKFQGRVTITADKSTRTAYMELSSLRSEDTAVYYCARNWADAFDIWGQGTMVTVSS VL: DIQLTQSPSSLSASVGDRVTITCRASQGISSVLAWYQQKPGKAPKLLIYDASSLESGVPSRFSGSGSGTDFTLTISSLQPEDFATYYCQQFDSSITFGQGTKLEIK", "Mean % WT Binding", 97.7),
    ("Refmab #3 (antibody, V domains shown, The alanine scan used IgG or Fab) VH: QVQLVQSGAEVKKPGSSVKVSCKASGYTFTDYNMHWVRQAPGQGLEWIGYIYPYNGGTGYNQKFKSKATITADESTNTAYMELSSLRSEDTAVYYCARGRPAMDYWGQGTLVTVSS VL: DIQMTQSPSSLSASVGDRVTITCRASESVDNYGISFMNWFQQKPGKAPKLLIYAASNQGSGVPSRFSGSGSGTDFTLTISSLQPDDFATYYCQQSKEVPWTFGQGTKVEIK", "Mean % WT Binding", 65.7),
    ("Refmab #1 (antibody, V domains shown, The alanine scan used IgG or Fab; also called hP67.6) VH: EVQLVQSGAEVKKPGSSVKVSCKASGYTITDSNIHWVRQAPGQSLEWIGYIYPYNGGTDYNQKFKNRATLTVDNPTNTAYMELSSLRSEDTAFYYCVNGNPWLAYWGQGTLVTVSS VL: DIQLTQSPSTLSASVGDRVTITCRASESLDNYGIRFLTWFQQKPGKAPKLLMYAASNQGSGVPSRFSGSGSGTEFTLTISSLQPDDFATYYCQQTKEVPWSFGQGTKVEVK", "Mean % WT Binding", 84.6),
]

Field: next binder
[Q] Answer with the recorded Mean % WT Binding for the binder listed here: Refmab #4 (antibody, V domains shown, The alanine scan used IgG or Fab) VH: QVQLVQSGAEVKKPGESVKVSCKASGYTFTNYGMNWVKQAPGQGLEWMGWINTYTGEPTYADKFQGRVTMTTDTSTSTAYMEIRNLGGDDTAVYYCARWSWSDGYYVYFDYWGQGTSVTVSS VL: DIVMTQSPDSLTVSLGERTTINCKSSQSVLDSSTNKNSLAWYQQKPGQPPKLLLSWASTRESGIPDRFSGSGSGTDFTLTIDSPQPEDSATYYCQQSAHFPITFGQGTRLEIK
[A] 43.3

These data points were gathered from patent US20260242735A1.
